- studySystem: T1, rGyr_fl Y851F (full-length reverse gyrase) (Thermotoga maritima, UniProt O51934 1-1104, Y851F)
- T1 sequence: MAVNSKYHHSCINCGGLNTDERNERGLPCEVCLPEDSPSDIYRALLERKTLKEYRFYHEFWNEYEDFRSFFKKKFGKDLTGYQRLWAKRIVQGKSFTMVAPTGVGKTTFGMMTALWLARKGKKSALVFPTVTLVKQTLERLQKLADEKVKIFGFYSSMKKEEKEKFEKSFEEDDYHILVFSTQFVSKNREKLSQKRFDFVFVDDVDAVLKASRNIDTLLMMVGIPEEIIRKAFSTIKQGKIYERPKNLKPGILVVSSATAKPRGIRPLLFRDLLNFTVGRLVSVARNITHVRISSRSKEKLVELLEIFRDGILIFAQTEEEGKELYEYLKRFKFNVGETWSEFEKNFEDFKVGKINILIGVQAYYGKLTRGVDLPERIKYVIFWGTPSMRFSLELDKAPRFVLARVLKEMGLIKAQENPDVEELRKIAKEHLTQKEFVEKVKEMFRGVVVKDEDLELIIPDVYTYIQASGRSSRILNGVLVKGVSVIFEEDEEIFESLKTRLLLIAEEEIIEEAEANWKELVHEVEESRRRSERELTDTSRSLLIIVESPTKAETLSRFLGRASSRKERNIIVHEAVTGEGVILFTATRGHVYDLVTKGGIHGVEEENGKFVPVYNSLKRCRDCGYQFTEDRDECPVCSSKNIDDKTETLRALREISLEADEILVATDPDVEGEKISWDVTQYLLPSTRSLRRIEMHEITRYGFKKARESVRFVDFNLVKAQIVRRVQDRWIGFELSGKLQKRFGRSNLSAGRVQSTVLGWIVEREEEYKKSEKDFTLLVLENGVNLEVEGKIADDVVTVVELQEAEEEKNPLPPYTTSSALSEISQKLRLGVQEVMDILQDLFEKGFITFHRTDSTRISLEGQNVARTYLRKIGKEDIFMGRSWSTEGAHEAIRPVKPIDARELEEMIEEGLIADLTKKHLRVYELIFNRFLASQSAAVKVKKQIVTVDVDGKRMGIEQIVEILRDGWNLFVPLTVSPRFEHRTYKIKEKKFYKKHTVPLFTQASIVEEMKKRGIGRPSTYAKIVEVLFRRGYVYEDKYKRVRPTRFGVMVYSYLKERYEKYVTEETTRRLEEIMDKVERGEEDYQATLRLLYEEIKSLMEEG
- assayMethodText: fluorescence anisotropy

{"columns": ["binder", "Kd, nM"],
 "data": [
  ["60-base ssDNA (ssDNA) DNA: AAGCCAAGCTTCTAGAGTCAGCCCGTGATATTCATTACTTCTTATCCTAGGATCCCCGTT", 41]
]}
